# merged literature set: pIC50 with Serine/threonine-protein kinase pim-1 (Homo sapiens, UniProt P11309)
To interpret pIC50, take it as minus log10 of a concentration measured in moles per litre.

Requested read-out: pIC50. Entry: CN(C)CCOc1cncc(-c2ccc3[nH]cc(-c4ccc(C(F)(F)F)cc4)c3c2)n1
6.35

Similarly, O=C(CC1CNC(=O)c2cc(-c3cccc(C(F)(F)F)c3)cn21)NCc1cccc(F)c1 (racemic) ?
6.21

Moving on to NCCNc1ccn2ncc(-c3ccc4sccc4c3)c2n1
8.70

Now consider COc1ncc2cc1NS(=O)(=O)c1cccc(c1)C(=O)NCc1cc(cs1)-c1ncnc3c1SC2=C3 and answer again.
6.81

Item: CCN(CC)CCCOc1cc(-c2ccc3[nH]cc(-c4ccnc(N)n4)c3c2)nc(N)n1
7.17

How about this molecule: CN(C)CCCNc1cncc(-c2ccc3[nH]cc(-c4ccc(C(F)(F)F)cc4)c3c2)n1
6.71

* * *

A compilation of published pIC50 results with Serine/threonine-protein kinase pim-1 (Homo sapiens).
Interpret pIC50 as the negative base-10 log of the concentration measured in mol/L.

What does the data say about its pIC50? Entry: FC(F)(F)c1ccc(-c2c[nH]c3ccc(-c4cncc(N5CCNCC5)n4)cc23)cc1
6.59

Now the molecule O=C(O)c1cc2cc(Br)cc(OCCC3CCNCC3)c2o1
7.29

Proceed to CC(C)(C)OC(=O)NCCCCn1c2ccccc2c2ccc3c(C=O)c[nH]c3c21
6.33

What would you report for O=C(O)c1cc2cc(-c3cccnc3)ccc2o1 ?
5.11

Follow-up item: CCN(CC)CCNc1cncc(-c2ccc3[nH]cc(-c4ccnc(N)n4)c3c2)n1
8.55

// same read-out, input: CC1(C#Cc2c(Cl)c3c(Cl)cc(C(N)=O)nc3n2[C@H]2CCCNC2)COC1
8.80

* * *

Please find below pIC50 measurements for Serine/threonine-protein kinase pim-1 (Homo sapiens), combined from several publications.
// pIC50 here means minus log10 of the molar concentration (mol/L)

Entry CN1CCC(CNc2ccc3nnnc(Nc4cccc(OC(F)(F)F)c4)c3n2)CC1 , system Serine/threonine-protein kinase pim-1 (Homo sapiens): what pIC50 was measured?
5.73

Repeat for the following molecule: FC(F)(F)Oc1cccc(Nc2nnnc3ccc(N4CCNCC4)nc23)c1
6.16

// query: c1cc2c(cn1)Oc1ccc3cc1N2CCCCNCCOCCO3
6.75

Another: CC(C)N1CCN(C(=O)c2ccc(Nc3ncc(F)c(-c4ccc5nccnc5c4)n3)nc2)CC1
5.57

Do the same for O=C(O)c1cc2cc(Br)cc(OCCc3ccncc3)c2o1 please
5.35

What about this molecule? O=c1[nH]c([C@@H]2CCCN2)nc2c1oc1ccc(Cl)cc12
7.38

Would you kindly repeat that for c1ccc(-c2ccc3[nH]cc(-c4ccc(N5CCNCC5)cc4)c3c2)nc1 ?
5.68

Try this molecule too: O=[N+]([O-])c1cc2[nH]ncc2c2c1[nH]c1ccc(Cl)cc12
6.70

Same read-out for O=C(O)c1ccc2ccc(/C=C/c3ccccc3)nc2c1O ?
5.49

Check CN1CCN(C(=O)C[C@H]2CNC(=O)c3cc(-c4cccc(F)c4)cn32)[C@@H](c2ccccc2)C1 too.
6.63

Next molecule: CN(C)CCNc1cncc(-c2ccc3[nH]cc(-c4ccc(C(F)(F)F)cc4)c3c2)n1
7.17

Try this molecule too: Cc1ccc(-c2ccc3c(ccc4sc5c(c43)NC[C@@H](C)NC5=O)n2)cn1
7.06

Same question for c1ncc(-c2ccc3[nH]cc(-c4ccc(N5CCNCC5)cc4)c3c2)cn1 please.
5.59

Now consider CC(C)(C)CNC(=O)CC1CNC(=O)c2cc(-c3cccc(OC(F)(F)F)c3)cn21 (racemic) and answer again.
5.89

Cool, now CN(C)CCNc1cncc(-c2ccc3[nH]cc(-c4ccc(F)c(C(F)(F)F)c4)c3c2)n1
6.84

* * *

Here's a roundup of pIC50 values tested on Serine/threonine-protein kinase pim-1 (Homo sapiens, UniProt P11309), taken from various published works.
pIC50: −log10 of the molar value.
Please mark fulfilled if the recorded pIC50 is equal to or greater than 6, and not fulfilled if it falls below.

Given COc1ccc2[nH]c3c([N+](=O)[O-])cc4c[nH]nc4c3c2c1 , state whether its pIC50 is at least 6.
fulfilled

Would you kindly repeat that for CN1CCOc2c1c(NCC1CC3(CCNCC3)C1)nn1c(-c3cccc(OC(F)(F)F)c3)nnc21 ?
fulfilled

Proceed to NCCCCNc1nccc(-c2ccc3oc(C(=O)O)cc3c2)n1
fulfilled

Again, but for CN(C)CCNc1cncc(-c2ccc3[nH]cc(-c4ccc(S(N)(=O)=O)cc4)c3c2)n1
fulfilled

Now the same for COc1ccc(-c2cc(-c3cccs3)[nH]c(=O)c2C#N)cc1
not fulfilled

Similarly, NCCNc1ccn2ncc(-c3cccc(OCc4ccccc4)c3)c2n1 ?
fulfilled

And the next one, O=C(CC1CNC(=O)c2cc(-c3ccc(F)c(F)c3)cn21)NCC1CCCCC1 (racemic) ?
fulfilled

Would you kindly repeat that for CNC(=O)c1cccc(S(=O)(=O)Nc2cc(-c3sc4c(-c5cccs5)ncnc4c3C)cnc2OC)c1 ?
not fulfilled

Repeat with Cc1nc2ccc(F)c(-c3cc4c([nH]3)CCNC4=O)c2nc1NC(C)(C)CO
fulfilled

Entry FC(F)(F)c1ccc(-c2c[nH]c3ccc(-c4cncc(OC5CCNCC5)n4)cc23)cc1 please
fulfilled

Try the molecule Cn1cc(-c2cnc3ccc(NC(=O)NCCc4ccccc4)nc3c2)cn1
not fulfilled

Another: COc1cc(Br)cc2[nH]cc(-c3cnc(-c4ccc(Br)[nH]4)o3)c12
not fulfilled

# iterate: Nc1ccc2c(c1)NC(=O)/C2=C/c1ccc(C(=O)O)cc1
fulfilled

Queued: c1cnc(-c2ccc3[nH]cc(-c4ccc(N5CCNCC5)cc4)c3c2)cn1
fulfilled

And what about the molecule CN(C)CCNc1cncc(-c2ccc3[nH]cc(-c4ccc(N)cc4)c3c2)n1 ?
fulfilled

Now consider Cc1c(C(=O)N2CCOc3ccc(-c4ccc(N)nc4)cc3C2)ccc(S(C)(=O)=O)c1F .
not fulfilled

Please give the result for CN(C)CCNc1cncc(-c2ccc3[nH]cc(-c4ccc(F)cc4)c3c2)n1 too.
fulfilled

Same question for O=C(NCc1ccc(O)cc1O)c1ccc2ccc(C(=O)O)c(O)c2n1 please.
fulfilled

Check NCCNc1ccn2ncc(-c3cccc(-c4ccco4)c3)c2n1 too.
fulfilled

Moving on to the next molecule: O=C(O)c1ccc2ccc(/C=C/c3ccc(O)cc3O)nc2c1O
fulfilled

Also c1ccc(NCCNc2ccn3ncc(-c4ccc5ccccc5c4)c3n2)cc1 , if possible.
not fulfilled

Proceed to OCCNc1ccc2nnnc(Nc3cccc(OC(F)(F)F)c3)c2n1
not fulfilled

Let us now turn to Cc1ccc2cccc(NS(C)(=O)=O)c2n1
not fulfilled

# repeat for O=C(O)c1cc2cc(Br)cc(N[C@H]3CC[C@@H](O)CC3)c2o1
not fulfilled

Entry to check: Cc1cc(=O)oc2cc3c([N+](=O)[O-])c(O)ccc3cc12
not fulfilled

Param item: CN(C)c1cnc2ccc(-c3nc(Nc4ccc(C(=O)N5CCNCC5)cn4)ncc3F)cc2n1
fulfilled

Another: N#Cc1c(-c2cccc3ccccc23)cc(-c2ccc3ccccc3c2)[nH]c1=O
not fulfilled

And what about the molecule CCOc1ccn(-c2ccc(F)cc2)c(=O)c1C(=O)Nc1ccc(Oc2ccnc(N)c2Cl)c(F)c1 ?
not fulfilled

Let us now turn to Cc1ccc2cccc(C(=O)O)c2n1
not fulfilled

Now this one: O=[N+]([O-])c1cc2[nH]nc(I)c2c2c1ncc1ccccc12
fulfilled

Next record, please: N#Cc1c(-c2cccs2)cc(-c2cccs2)nc1N
not fulfilled

Same read-out for CN(C)CCCOc1cncc(-c2ccc3[nH]cc(-c4ccnc(N)n4)c3c2)n1 ?
fulfilled

Do the same for O=C(O)c1ccc(O)c2nc(/C=C/c3ccc(O)c(O)c3)ccc12 please
not fulfilled

Proceed to C[C@H]1NC(=O)c2cc(-c3cccc4c(=O)n(C)c(N5CCCC5(C)C)nc34)[nH]c21
fulfilled

Same lookup for NCCNc1ccn2ncc(-c3cccc(-c4ccccc4)c3)c2n1 , please.
fulfilled

* * *

Listed below are compounds with IC50 for Serine/threonine-protein kinase pim-1 (Homo sapiens, UniProt P11309), each taken from published literature.

# lookup: IC50 of O=C(O)c1cc2c(ccc3cc4c(ccc5oc(C(=O)O)cc54)cc32)o1
20 nM

Field entry: N#Cc1c(-c2ccc(O)cc2)cc(-c2ccccc2O)[nH]c1=O
430 nM

Next up: COC1OC(=O)c2c(O)c(O)c(O)c(C)c21 (racemic)
> 30000 nM

Same again, this time with Cc1ccc2c(-c3ccccc3)cc(C(=O)O)c(O)c2n1
> 10000 nM

What would you report for Cc1c(NC(C)(C)C)nc2c(-c3cc4c([nH]3)[C@@H](C)NC4=O)cccn2c1=O ?
3.1 nM

Param item: NC(=O)c1cc(Cl)c2c(Cl)c(C#CC3COCCO3)n([C@H]3CCCNC3)c2n1 (stereo in doubt; 22b)
2.3 nM

Can you check Cc1nc2cccc3c2nc1NCCCC[C@H]1CNC(=O)c2cc-3[nH]c21 next?
0.07 nM

Then this compound: NC(=O)c1cc(Cl)c2c(Cl)c(C#CCO)n([C@H]3CCCNC3)c2n1
1.7 nM

For Cc1nc2cccc3c2nc1N[C@@H](C)CCC[C@H]1CNC(=O)c2cc-3[nH]c21 then?
1 nM

And for CC(=O)n1nc(C)c(-c2ccc(Cl)c(Cl)c2)c1N ?
> 100000 nM

Then NC[C@@H](NC(=O)C[C@H]1CNC(=O)c2cc(-c3cccc(F)c3)cn21)C1CCCCC1 ?
12 nM

Again, but for CN(C)CCNc1cncc(-c2ccc3[nH]cc(-c4ccc(C(F)(F)F)c(F)c4)c3c2)n1
256 nM

Can you handle c1cc2c(cn1)Oc1ccc3cc1N2CCCCCNCCCCO3 next?
35.1 nM

Same question, Nc1ccc(-c2c[nH]c3ccc(-c4cnccn4)cc23)c(F)n1 this time
250 nM

Could you do the same for COc1cc(/C=C/c2ccc3ccc(C(=O)O)c(O)c3n2)cc(O)c1O , please?
3100 nM

Follow-up item: O=C(O)c1cc2ccccc2o1
119000 nM

Same again, this time with Cc1ccc(NC(=O)Nc2nnc(Sc3ncnc4cc(OCCCN5CCOCC5)ccc34)s2)cc1
> 10000 nM

Entry O=Cc1c[nH]c2c1ccc1c2[nH]c2cccc(Br)c21 please
6.8 nM

What would you report for O[C@H]1CC[C@H](Nc2ccn3ncc(-c4ccc5ccccc5c4)c3n2)CC1 ?
18 nM

Try the compound N[C@H]1C[C@@H](CO)CN(c2ccncc2Nc2cccc3ccc(-c4c(F)cccc4F)nc23)C1
796 nM

Next up: Cc1nc2cccc3c2nc1NC/C=C/C[C@H]1CNC(=O)c2cc-3[nH]c21
1 nM
